Assay: single-dose pharmacokinetics experiment: serum creatine and creatinine by LC-MS/MS
Assay type: in vivo, human
Conditions: male, human, in vivo; single oral dose (3 g CN + 3 g creatinine, 3 g CN or 3 g CRM), peak time, n=10 healthy men; read-out: average serum creatine concentration at 60 minutes post-administration
experimental_readout: concentration at 60 min (µM)

compound	unit_info	observed_measurement
CN(CC(=O)O)C(=N)N.O=[N+]([O-])O [CN, creatine nitrate]	µM	164
